- target.under.test: Protein farnesyltransferase (Rattus norvegicus, UniProt Q02293+Q04631)
- assay.comment: Inhibition of Farnesyltransferase from rat brain
pIC50: −log10 of the molar value.
measure.name: pIC50

P: CC(C(C/C=C/c1nc2ccccc2o1)c1ccc2c(c1)OCO2)N(Cc1ccc2ccccc2c1)C(=O)C1OC(C(=O)O)(C(=O)O)O[C@H]1C(=O)O (single isomer, unassigned)
Q: CC(C(C/C=C/c1ccc2ccccc2c1)c1ccc(Cl)cc1)N(Cc1ccc2ccccc2c1)C(=O)CC(CC(=O)O)C(=O)O (centres undefined)
R: CC(C(C/C=C/c1nc2ccccc2o1)c1ccc2c(c1)OCO2)N(Cc1ccc2ccccc2c1)C(=O)CC(CC(=O)O)C(=O)O (centres undefined)
Ask | Your job: order these 3 records by pIC50, ascending. Please write the labels in the order that was asked for.
Reply | Q, R, P
(Q: 7.29, R: 7.64, P: 8.10)
